Listed compounds paired with reported Kd
- SYSTEM: Fc-fusion protein of human PSMA (hPSMA-Fc) (Homo sapiens)
- Construct: purchased Acro Biosystems PSA-H5264
- PROTOCOL: Surface plasmon resonance assay (Biacore T200, single cycle kinetic)
- Type: binding
- APPLIED CONDITIONS: pKD category for PSMA SPR activity assay, hPSMA-Fc, 25° C.; read-out: pKD CAT (converted)
- Protocol: Surface plasmon resonance (SPR) studies were performed using a Biacore™ T200 SPR system. Briefly, polarized light is directed towards a gold-labeled sensor surface, and minimum intensity reflected light is detected. […] For each test compound, SPR raw data in the form of resonance units (RU) were plotted as sensorgrams using the Biacore™ T200 control software. […] The pKD value (negative decadic logarithm of dissociation constant) was calculated using Microsoft Excel.
Bridge positions count the residues as written; N and C are the ends. Square brackets hold non-standard residues; d marks the D form. Peptide text beside a SMILES is read from it. * marks the point of attachment. TtdsdLys(DOTA)NH2 = NC(=O)[C@@H](CCCCNC(=O)CN1CCN(CC(=O)O)CCN(CC(=O)O)CCN(CC(=O)O)CC1)NC(=O)CCC(=O)NCCCOCCOCCOCCCN*; Phe(3-Cl) = N[C@@H](Cc1cccc(Cl)c1)C(=O)O; Tle = CC(C)(C)[C@H](N)C(=O)O; Hexanoyl = CCCCCC(=O)*; Aib = CC(C)(N)C(=O)O

{"COMPOUND": "CC(=O)N[C@H](C(=O)NC(C)(C)C(=O)N[C@@H](Cc1cccc(Cl)c1)C(=O)N[C@H]1CSSC[C@@H](C(=O)N[C@H](C(=O)N[C@H](C(=O)N[C@@H](CC(=O)O)C(N)=O)[C@@H](C)O)C(C)(C)C)NC(=O)[C@H](CC(N)=O)NC(=O)C(C)(C)NC(=O)[C@H](CCCNC(=N)N)NC(=O)[C@H](CCCCN)NC1=O)[C@@H](C)O [PSM-0383] (Ac-T[Aib][Phe(3-Cl)]CKR[Aib]NC[Tle]TD-NH2; disulfide 4-9)", "READOUT VALUE": "< 12.6 nM"}

Req: Request the reported Kd associated with CCCCCC(=O)N[C@H](C(=O)NC(C)(C)C(=O)N[C@@H](Cc1ccccc1)C(=O)N[C@H]1CSSC[C@@H](C(=O)N[C@H](C(=O)N[C@H](C(=O)NCCCOCCOCCOCCCNC(=O)CCC(=O)N[C@H](CCCCNC(=O)CN2CCN(CC(=O)O)CCN(CC(=O)O)CCN(CC(=O)O)CC2)C(N)=O)[C@@H](C)O)C(C)(C)C)NC(=O)[C@H](CC(N)=O)NC(=O)[C@H](C)NC(=O)[C@H](CCCNC(=N)N)NC(=O)[C@H](CCCCN)NC1=O)[C@@H](C)O [PSM-0462] (Hexanoyl-T[Aib]FCKRANC[Tle]T-{TtdsdLys(DOTA)NH2}; disulfide 4-9)
Resp: < 12.6 nM

###

- SYSTEM: PSMA-expressing C4-2 cells (Homo sapiens)
- Construct: PSMA-expressing C4-2 cells (ATCC, Cat. No. CRL-3314) were cultured in RPMI-1640; host or cells: C4-2 cells
- Sequence (Q04609 whole entry): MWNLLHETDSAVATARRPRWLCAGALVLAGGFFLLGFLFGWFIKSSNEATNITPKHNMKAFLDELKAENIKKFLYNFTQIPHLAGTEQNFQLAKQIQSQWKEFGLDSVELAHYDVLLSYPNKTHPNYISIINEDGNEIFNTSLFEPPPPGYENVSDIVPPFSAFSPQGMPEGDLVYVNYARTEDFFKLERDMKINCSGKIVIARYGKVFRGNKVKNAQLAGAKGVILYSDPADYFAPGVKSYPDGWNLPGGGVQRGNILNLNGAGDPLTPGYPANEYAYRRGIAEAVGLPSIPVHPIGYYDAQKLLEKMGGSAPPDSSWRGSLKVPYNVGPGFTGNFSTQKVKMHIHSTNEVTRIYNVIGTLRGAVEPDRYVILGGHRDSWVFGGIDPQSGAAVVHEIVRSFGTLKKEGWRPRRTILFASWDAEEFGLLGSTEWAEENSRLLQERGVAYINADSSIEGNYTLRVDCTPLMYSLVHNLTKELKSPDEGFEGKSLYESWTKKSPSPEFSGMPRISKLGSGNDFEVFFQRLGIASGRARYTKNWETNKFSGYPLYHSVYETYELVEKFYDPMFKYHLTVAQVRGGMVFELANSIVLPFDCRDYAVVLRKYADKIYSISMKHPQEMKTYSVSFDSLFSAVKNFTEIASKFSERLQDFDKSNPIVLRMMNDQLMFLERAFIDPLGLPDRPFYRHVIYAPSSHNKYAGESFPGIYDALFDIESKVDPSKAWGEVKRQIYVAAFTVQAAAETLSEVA
- PROTOCOL: FACS binding assay (competition with 50 nM PSM-0183)
- APPLIED CONDITIONS: pIC50 category of FACS binding, C4-2 cells; read-out: pIC50 [C4-2] CAT (converted)
- Description: In order to determine binding of compounds according to the present invention to PSMA-expressing cells, a FACS binding assay was established. PSMA-expressing C4-2 cells (ATCC, Cat. No. CRL-3314) were cultured in RPMI-1640 (Pan Biotech, Cat. No. P04-18050) including 10% fetal calf serum (Biochrom) and 100 U/ml penicillin and 100 μg/mL streptomycin (Sigma, Cat. No. P0781). […]
Numbered stars: 1 amine (or outer) side, 2 acyl side, 3 side chain; on linkers, the order of the positions; unused ones are H or OH. Bridge positions count the residues as written; N and C are the ends. Square brackets hold non-standard residues; d marks the D form. Peptide text beside a SMILES is read from it. * marks the point of attachment. DOTA = O=C(O)CN1CCN(CC(=O)O)CCN(CC(=O)*)CCN(CC(=O)O)CC1; Phe(3-Me) = Cc1cccc(C[C@H](N)C(=O)O)c1; X1 = O=C(CC1CCN([*:1])CC1)[*:2]; Tle = CC(C)(C)[C@H](N)C(=O)O; Aib = CC(C)(N)C(=O)O; NHBu = CCCCN*
ASSAY METRIC: IC50

{"MOLECULE": "C[C@@H](O)[C@H](NC(=O)[C@@H](NC(=O)[C@@H]1CSSC[C@H](NC(=O)[C@H](Cc2ccccc2)NC(=O)C(C)(C)NC(=O)[C@@H](NC(=O)CC2CCN(C(=O)CN3CCN(CC(=O)O)CCN(CC(=O)O)CCN(CC(=O)O)CC3)CC2)[C@@H](C)O)C(=O)N[C@@H](CCCCN)C(=O)N[C@@H](CCCNC(=N)N)C(=O)NC(C)(C)C(=O)N[C@@H](CC(N)=O)C(=O)N1)C(C)(C)C)C(N)=O [PSM-0492] ({DOTA}-[X1]T[Aib]FCKR[Aib]NC[Tle]T-NH2; disulfide 5-10)", "READOUT VALUE": "< 200 nM"}
{"MOLECULE": "CCCCNC(=O)[C@@H](NC(=O)[C@@H]1CSSC[C@H](NC(=O)[C@H](Cc2ccccc2)NC(=O)C(C)(C)NC(=O)[C@@H](NC(C)=O)[C@@H](C)O)C(=O)N[C@@H](CCCCN)C(=O)N[C@@H](CCCNC(=N)N)C(=O)NC(C)(C)C(=O)N[C@@H](CC(N)=O)C(=O)N1)C(C)(C)C [PSM-0510] (Ac-T[Aib]FCKR[Aib]NC[Tle]-NHBu; disulfide 4-9)", "READOUT VALUE": "< 200 nM"}

Continue with the molecule presented below.
Req: Request the reported IC50 associated with CC(=O)N[C@H](C(=O)NC(C)(C)C(=O)N[C@@H](Cc1cccc(C)c1)C(=O)N[C@H]1CSSC[C@@H](C(=O)N[C@H](C(=O)N[C@H](C(N)=O)[C@@H](C)O)C(C)(C)C)NC(=O)[C@H](CC(N)=O)NC(=O)C(C)(C)NC(=O)[C@H](CCCNC(=N)N)NC(=O)[C@H](CCCCN)NC1=O)[C@@H](C)O [PSM-0412] (Ac-T[Aib][Phe(3-Me)]CKR[Aib]NC[Tle]T-NH2; disulfide 4-9)
Resp: < 200 nM

###

Listed compounds paired with reported Kd
- SYSTEM: Fc-fusion protein of human PSMA (hPSMA-Fc) (Homo sapiens)
- Construct: purchased Acro Biosystems PSA-H5264
- PROTOCOL: Surface plasmon resonance assay (Biacore T200, single cycle kinetic)
- Assay type: binding
- APPLIED CONDITIONS: SPR, hPSMA-Fc, single cycle kinetic, 25° C.; category; read-out: pKD CAT (converted)
Numbered stars: 1 amine (or outer) side, 2 acyl side, 3 side chain; on linkers, the order of the positions; unused ones are H or OH. Bridge positions count the residues as written; N and C are the ends. Square brackets hold non-standard residues; d marks the D form. Peptide text beside a SMILES is read from it. * marks the point of attachment. X3 = O=C(O)CN1CCN(CC(=O)O)CCN(CC(=O)NCCCOCCOCCOCCCN*)CCN(CC(=O)O)CC1; DOTA = O=C(O)CN1CCN(CC(=O)O)CCN(CC(=O)*)CCN(CC(=O)O)CC1; Phe(4-Cl) = N[C@@H](Cc1ccc(Cl)cc1)C(=O)O; Ethylenediamine = C(CN[*:2])N[*:1]; X5 = O=C(c1ccc(CN[*:1])nc1)[*:2]; Suc = O=C(CCC(=O)[*:2])[*:1]; Tle = CC(C)(C)[C@H](N)C(=O)O; Nle = CCCC[C@H](N)C(=O)O; Aib = CC(C)(N)C(=O)O

{"COMPOUND": "CCCC[C@H](NC(=O)[C@@H]1CSSC[C@H](NC(=O)[C@H](Cc2ccccc2)NC(=O)[C@H](C)NC(=O)[C@@H](NC(C)=O)[C@@H](C)O)C(=O)N[C@@H](CCCCN)C(=O)N[C@@H](CCCNC(=N)N)C(=O)N[C@@H](CCC(=O)O)C(=O)N[C@@H](CC(N)=O)C(=O)N1)C(=O)N[C@@H](C(=O)N[C@H](CC(=O)O)C(N)=O)[C@H](C)O [PSM-0197] (Ac-TAFCKRENC[Nle][dT][dD]-NH2; disulfide 4-9)", "Kd": "12.6 to 126 nM"}
{"COMPOUND": "C[C@@H]1NC(=O)[C@H](CCCNC(=N)N)NC(=O)[C@H](CCCCN)NC(=O)[C@@H](NC(=O)[C@H](Cc2ccccc2)NC(=O)C(C)(C)NC(=O)[C@@H](NC(=O)CCC(=O)NCCCOCCOCCOCCCNC(=O)CN2CCN(CC(=O)O)CCN(CC(=O)O)CCN(CC(=O)O)CC2)[C@@H](C)O)CSSC[C@@H](C(=O)N[C@H](C(=O)N[C@H](C(=O)N[C@@H](CC(=O)O)C(N)=O)[C@@H](C)O)C(C)(C)C)NC(=O)[C@H](CC(N)=O)NC1=O [PSM-0193] ({X3-Suc}-T[Aib]FCKRANC[Tle]TD-NH2; disulfide 4-9)", "Kd": "< 12.6 nM"}

Continue with the compound presented below.
Req: // fetch Fc-fusion protein of human PSMA (hPSMA-Fc) (Homo sapiens) Kd for CC(=O)NCc1ccc(C(=O)NC(C)(C)C(=O)N[C@@H](Cc2ccc(Cl)cc2)C(=O)N[C@H]2CSSC[C@@H](C(=O)N[C@H](C(=O)NCCNC(=O)CN3CCN(CC(=O)O)CCN(CC(=O)O)CCN(CC(=O)O)CC3)C(C)(C)C)NC(=O)[C@H](CC(N)=O)NC(=O)C(C)(C)NC(=O)[C@H](CCCNC(=N)N)NC(=O)[C@H](CCCCN)NC2=O)cn1 [PSM-0186] (Ac-[X5][Aib][Phe(4-Cl)]CKR[Aib]NC[Tle]-{Ethylenediamine-DOTA}; disulfide 4-9)
Resp: < 12.6 nM

Data provenance: patent US20260083865A1
